Reported pIC50 is given for each of the following molecules.
# experimentalTarget: human plasma kallikrein (Homo sapiens (Human), UniProt P03952)
# Sequence (P03952 391-638): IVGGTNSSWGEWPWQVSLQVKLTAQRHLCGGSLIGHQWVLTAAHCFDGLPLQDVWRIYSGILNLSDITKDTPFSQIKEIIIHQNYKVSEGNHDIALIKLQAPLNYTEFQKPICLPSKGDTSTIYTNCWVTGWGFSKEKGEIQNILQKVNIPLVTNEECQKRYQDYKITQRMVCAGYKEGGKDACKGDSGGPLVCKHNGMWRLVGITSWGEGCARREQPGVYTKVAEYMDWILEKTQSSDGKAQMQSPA
# Sequence (P03952 20-390 partner): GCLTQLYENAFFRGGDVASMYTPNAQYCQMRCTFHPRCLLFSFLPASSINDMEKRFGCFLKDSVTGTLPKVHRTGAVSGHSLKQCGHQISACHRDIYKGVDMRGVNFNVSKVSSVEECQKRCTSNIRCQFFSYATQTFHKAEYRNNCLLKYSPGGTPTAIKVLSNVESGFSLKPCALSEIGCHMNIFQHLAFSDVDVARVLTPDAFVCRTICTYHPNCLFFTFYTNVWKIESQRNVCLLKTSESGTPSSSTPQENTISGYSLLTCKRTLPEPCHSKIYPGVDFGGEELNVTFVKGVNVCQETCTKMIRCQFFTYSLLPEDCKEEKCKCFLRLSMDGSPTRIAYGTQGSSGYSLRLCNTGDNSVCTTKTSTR
# assayName: In vitro enzyme inhibition of human plasma kallikrein (PFR-AMC cleavage)
# experimentalConditions: Pro-Phe-Arg-AMC substrate, 37° C., read-out: hPK IC50
pIC50: −log10 of the molar value.
propertyName: pIC50

O=C(NCc1cnc2[nH]nc(C(F)(F)F)c2c1)c1ccnc(Cc2ccc3ncc(Cl)cc3c2)c1 | 6.00 to 7.00
COCCNc1ccc(CNC(=O)c2ccnc(Cc3ccc4ncc(Cl)cc4c3)c2)c(C)n1 | 6.00 to 7.00
CC(C)(O)c1cc(Cc2cc(C(=O)NCc3cc4c(Cl)c[nH]c4cc3F)ccn2)cc2cc(Cl)cnc12 | > 7.00
Cc1cc(N)nc(C)c1CNC(=O)c1ccnc(Cc2ccc3ncc(C(C)O)cc3c2)c1 (centres unmarked) | > 7.00
Nc1nc(C(F)(F)F)n2cc(CNC(=O)c3ccnc(Cc4ccc5ncc(Cl)cc5c4)c3)ccc12 | > 7.00
Cc1cc(N)nc(C)c1CNC(=O)c1ccnc(C(N)c2ccc3ncc(Cl)cc3c2)c1 (centres unmarked) | > 7.00
Cc1cc(N)nc(C)c1CNC(=O)c1cc(Cc2ccc3ncc(Cl)cc3c2)nc(C(N)=O)c1 | > 7.00
Cc1nc2c(cc1CNC(=O)c1ccnc(Cc3ccc4ncc(C(F)(F)F)cc4c3)c1)CNC2 | < 5.00
Nc1nccc2c(F)c(CNC(=O)c3ccnc(Cc4ccc5ncc(Cl)cc5c4)c3)ccc12 | > 7.00
Nc1cnc2ccc(Cc3cc(C(=O)NCc4cnc5[nH]cc(Cl)c5c4)ccn3)cc2c1 | 5.00 to 6.00
Cc1cnc2c(S(N)(=O)=O)cc(Cc3cc(C(=O)NCc4n[nH]c5ccc(Cl)cc45)ccn3)cc2c1 | > 7.00
